target: UniProt P29990
Sequence (P29990 1346-1475 limits assumed): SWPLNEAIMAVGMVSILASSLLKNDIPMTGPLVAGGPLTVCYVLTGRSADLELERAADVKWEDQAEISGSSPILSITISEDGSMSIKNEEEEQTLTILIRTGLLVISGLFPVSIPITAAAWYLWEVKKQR
Sequence (P29990 1476-2093 limits assumed): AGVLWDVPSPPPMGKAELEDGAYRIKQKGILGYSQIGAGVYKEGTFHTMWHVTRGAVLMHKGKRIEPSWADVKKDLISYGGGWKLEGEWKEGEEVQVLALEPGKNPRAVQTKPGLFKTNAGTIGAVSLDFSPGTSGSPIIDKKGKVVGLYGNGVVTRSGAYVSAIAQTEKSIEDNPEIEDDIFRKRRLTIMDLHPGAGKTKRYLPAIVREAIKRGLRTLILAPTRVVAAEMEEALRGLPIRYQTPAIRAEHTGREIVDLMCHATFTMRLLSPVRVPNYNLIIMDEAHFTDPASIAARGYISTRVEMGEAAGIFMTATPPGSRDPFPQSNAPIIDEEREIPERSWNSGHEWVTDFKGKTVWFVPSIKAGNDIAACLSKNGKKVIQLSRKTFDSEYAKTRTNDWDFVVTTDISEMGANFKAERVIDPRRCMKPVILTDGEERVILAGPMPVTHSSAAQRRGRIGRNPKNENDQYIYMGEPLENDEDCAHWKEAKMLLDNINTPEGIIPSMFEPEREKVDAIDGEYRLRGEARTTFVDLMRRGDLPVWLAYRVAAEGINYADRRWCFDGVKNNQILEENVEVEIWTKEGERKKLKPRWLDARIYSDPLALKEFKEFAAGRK

molecular.string: CC(=O)N[C@@H](CCCCN)C(=O)N[C@@H](CCCCN)C(=O)N[C@H](C(=O)NCc1ccccc1)c1ccc(OCc2ccc(C(F)(F)F)cc2)cc1
system.under.test: UniProt P29990
IC50 (nM): 200

----------
experiment: Inhibition of 6-His tagged-G4SG4 fused ZIKV NS2B (49 to 95 residues) R95A mutant-NS3 (1 to 170 residue) R29G mutant expressed in Escherichia coli BL21 (DE3) using Bz-Nle-K-RR-AMC substrate preincubated for 10 mins followed by substrate addition and measured after 30 mins by fluorescence assay; parameters: species or system Zika virus
pIC50: −log10 of the molar value. Non-standard residues stand in square brackets, D forms with d. Residues, ends and D or L forms follow the SMILES beside them. *: point of attachment. Phe(4-CONH2) = NC(=O)c1ccc(C[C@H](N)C(=O)O)cc1; Dab = NCC[C@H](N)C(=O)O; PhAc = O=C(Cc1ccccc1)*
Please use Met whenever pIC50 is not below 6, and Not met whenever it is.

compound: N=C(N)NCCC[C@H](NC(=O)c1cccs1)C(=O)N[C@@H](CCCCN)C(=O)N[C@H](C(N)=O)c1ccc(OCCc2ccccc2)cc1
label.value: Not met

compound: NCCCC[C@H](NC(=O)CC1CCCCC1)C(=O)N[C@@H](CCCCN)C(=O)N[C@H](C(=O)NCc1ccccc1)c1ccc(OCc2ccc(C(F)(F)F)cc2)cc1
label.value: Met

compound: N=C(N)NCCC[C@H](NC(=O)[C@H](CCN)NC(=O)[C@H](CCCCN)NC(=O)Cc1ccccc1)C(N)=O (PhAc-Lys-[Dab]-Arg-NH2)
label.value: Met

compound: N=C(N)NCCC[C@H](NC(=O)[C@H](Cc1ccc(C(N)=O)cc1)NC(=O)[C@H](CCCCN)NC(=O)Cc1ccccc1)C(N)=O (PhAc-Lys-[Phe(4-CONH2)]-Arg-NH2)
label.value: Not met

compound: N=C(N)NCC[C@H](NC(=O)[C@H](CCCCN)NC(=O)[C@H](CCCCN)NC(=O)Cc1ccc(Cl)c(Cl)c1)C(=O)NCC1CCCCC1
label.value: Not met
